- Measurement Target: adrenergic receptor alpha2A (Homo sapiens)
- Construct: expressed in transfected cells; host or cells: recombinant human cells (so in the source)
- Sequence (P08913 1-465): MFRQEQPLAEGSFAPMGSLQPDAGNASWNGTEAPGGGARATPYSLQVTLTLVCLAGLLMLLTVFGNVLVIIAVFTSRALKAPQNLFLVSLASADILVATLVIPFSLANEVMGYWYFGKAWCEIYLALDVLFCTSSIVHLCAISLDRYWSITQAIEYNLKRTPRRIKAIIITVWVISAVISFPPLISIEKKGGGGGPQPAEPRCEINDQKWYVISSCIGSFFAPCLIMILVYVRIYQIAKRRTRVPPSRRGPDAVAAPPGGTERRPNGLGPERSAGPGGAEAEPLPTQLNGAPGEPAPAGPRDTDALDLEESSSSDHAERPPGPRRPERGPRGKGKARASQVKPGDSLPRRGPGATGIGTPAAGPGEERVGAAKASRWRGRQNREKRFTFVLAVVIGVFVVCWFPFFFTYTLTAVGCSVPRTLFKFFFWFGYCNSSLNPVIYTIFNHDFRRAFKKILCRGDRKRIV
- Method: Inhibition constants (Ki) for adrenergic receptor alpha2A in recombinant cells
- Type: binding
- Condition Parameters: read-out: pKi α2A (converted)
Could you mark each record t if its Ki falls strictly under 7 nM, and f if it equals or exceeds it?

Check out these entries, answers already filled in.
Compound | Category
Cc1ccc2c(c1)O[C@@H](CN1CCC(CCN3C(=O)OC[C@@H]3Cc3ccccc3)CC1)CO2 [Example 31] | t
O=C1OC[C@@H](CO)N1CCC1CCN(C[C@H]2COc3c(Cl)cc(F)cc3O2)CC1 [Example 63] | f
O=C1OC[C@@H](CO)N1CCC1CCN(C[C@H]2COc3c(F)cc(Cl)cc3O2)CC1 [Example 62] | f
O=C1COCCN1CCC1CCN(C[C@H]2COc3c(F)cc(Cl)cc3O2)CC1 [Example 94] | t

Below 7 nM on Ki? Entry O=C1OCCN1CCC1CCN(C[C@H]2COc3c(F)cc(F)cc3O2)CC1 [Example 10] t

Field: below-cutoff. Rule: recorded Ki strictly less than 7 nM. Subject: O=C1OC[C@H](Cc2ccccc2)N1CCC1CCN(C[C@H]2COc3ccc(OC(F)(F)F)cc3O2)CC1 [Example 32] f

Answer whether the compound O=C1OC[C@H](Cc2ccccc2)N1CCC1CCN(C[C@H]2COc3cc(O)ccc3O2)CC1 [Example 36] has Ki strictly less than 7 nM t

Does the reported Ki of O=C1OC[C@H](Cc2ccccc2)N1CCC1CCN(C[C@H]2COc3ccc(Br)cc3O2)CC1 [Example 26] stay below 7 nM? f

Lab note: Ki threshold 7 nM. Does this compound come in strictly under it? O=C1OC[C@@H](COc2ccccc2)N1CCC1CCN(C[C@H]2COc3ccc(Br)cc3O2)CC1 [Example 69] f

---

- Measurement Target: adrenergic receptor alpha2B (Homo sapiens)
- Construct: expressed in transfected cells; host or cells: recombinant human cells (so in the source)
- Sequence (P18089 1-450): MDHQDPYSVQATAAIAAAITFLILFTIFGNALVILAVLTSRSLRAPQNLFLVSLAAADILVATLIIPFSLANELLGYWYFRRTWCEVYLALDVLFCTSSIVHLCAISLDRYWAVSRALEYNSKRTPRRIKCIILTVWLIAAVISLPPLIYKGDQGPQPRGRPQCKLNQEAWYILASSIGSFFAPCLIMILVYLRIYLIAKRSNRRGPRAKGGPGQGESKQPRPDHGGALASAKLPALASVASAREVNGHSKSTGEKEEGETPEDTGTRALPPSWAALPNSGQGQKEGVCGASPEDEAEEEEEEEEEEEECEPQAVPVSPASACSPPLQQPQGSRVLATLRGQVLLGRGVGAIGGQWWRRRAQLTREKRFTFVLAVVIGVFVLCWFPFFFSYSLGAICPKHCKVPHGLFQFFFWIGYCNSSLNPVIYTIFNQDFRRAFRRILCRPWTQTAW
- Method: Inhibition constants (Ki) for adrenergic receptor alpha2B in recombinant cells
- Assay type: binding
- Condition Parameters: read-out: pKi α2B (converted)
Assay Metric: Ki (nM)
Only the number, expressed in nM, is required.

Worked set:
Compound | Observed Measurement
O=C1OC[C@H](Cc2ccccc2)N1CCC1CCN(C[C@H]2COc3cc(O)ccc3O2)CC1 [Example 36] | 1.17
O=C1OC[C@@H](CO)N1CCC1CCN(C[C@H]2COc3c(Cl)cc(F)cc3O2)CC1 [Example 63] | 8.32
O=C1OCCN1CCC1CCN(C[C@H]2COc3c(Cl)cc(F)cc3O2)CC1 [Example 13] | 2.57
O=C1OCCN1CCC1CCN(C[C@H]2COc3ccc(F)cc3O2)CC1 [Example 7] | 1.95
O=C1COCCN1CCC1CCN(C[C@H]2COc3c(F)cc(Cl)cc3O2)CC1 [Example 94] | 4.47
O=C1OC[C@H](Cc2ccccc2)N1CCC1CCN(C[C@H]2COc3ccc(OC(F)(F)F)cc3O2)CC1 [Example 32] | 18.2
O=C1OC[C@H](Cc2ccccc2)N1CCC1CCN(C[C@H]2COc3ccc(Br)cc3O2)CC1 [Example 26] | 9.55
O=C1OCCN1CCC1CCN(C[C@H]2COc3c(F)cc(F)cc3O2)CC1 [Example 10] | 0.813

Next compound, Ki to be filled in.
Need Ki, item Cc1ccc2c(c1)O[C@@H](CN1CCC(CCN3C(=O)OC[C@@H]3Cc3ccccc3)CC1)CO2 [Example 31] 2.95
